Every entry's value here was drawn from ChEMBL document CHEMBL3217581.

Biological target: Amine oxidase [flavin-containing] A (Homo sapiens)
Sequence (P21397 whole entry): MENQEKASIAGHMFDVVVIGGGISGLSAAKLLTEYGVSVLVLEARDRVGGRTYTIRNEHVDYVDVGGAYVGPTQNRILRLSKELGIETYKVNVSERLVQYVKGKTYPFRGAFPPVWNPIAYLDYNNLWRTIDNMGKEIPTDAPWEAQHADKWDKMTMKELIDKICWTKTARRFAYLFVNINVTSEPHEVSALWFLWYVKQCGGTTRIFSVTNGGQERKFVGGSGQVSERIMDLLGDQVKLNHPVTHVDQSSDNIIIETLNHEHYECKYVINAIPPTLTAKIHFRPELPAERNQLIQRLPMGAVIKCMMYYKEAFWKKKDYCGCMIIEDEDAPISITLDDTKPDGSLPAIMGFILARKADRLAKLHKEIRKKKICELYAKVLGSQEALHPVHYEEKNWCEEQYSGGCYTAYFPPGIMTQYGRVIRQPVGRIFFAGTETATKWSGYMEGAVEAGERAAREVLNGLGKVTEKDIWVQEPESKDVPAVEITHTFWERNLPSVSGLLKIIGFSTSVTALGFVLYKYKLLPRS
Test: Inhibition of human MAO-A expressed in baculovirus infected BTI-TN-5B1-4 insect cells using p-tyramine as substrate assessed as hydrogen peroxide production by fluorimetric method
IC50 values by entry
Output spec: scalar in nM, unitless text.

COMPOUND	MEAS VALUE
C/C(=N\Nc1nc(-c2ccc3ccccc3c2)cs1)c1cccs1	3730

Lookup: IC50 / Amine oxidase [flavin-containing] A (Homo sapiens) / Cc1sc(N/N=C/c2c[nH]c3ccccc23)nc1-c1ccccc1 3120

Another compound: Cc1sc(N/N=C/c2ccc3c(c2)OCO3)nc1-c1ccccc1 8630

----------
species: Homo sapiens; test: Selectivity index, ratio of IC50 for human MAO-B to IC50 for human MAO-A
METRIC: Ratio IC50
Note: the reply should be a number with no unit written.

Here is how some molecules turned out for Ratio IC50.
SMILES CODE	MEAS VALUE
Cc1sc(N/N=C/c2ccco2)nc1-c1ccccc1	1.72
CCCC/C(CC)=N\Nc1nc(-c2ccccc2)c(C)s1	1.16
C(=N\Nc1nc(-c2ccc3ccccc3c2)cs1)/c1ccncc1	0.83
C/C(=N\Nc1nc(-c2ccc3ccccc3c2)cs1)c1ccco1	1.3
C(=N\Nc1nc(-c2ccc3ccccc3c2)cs1)/c1ccco1	1.35

Given CC/C(C)=N\Nc1nc(-c2ccccc2)c(C)s1 , state its recorded Ratio IC50. 1

Also check C/C(CC(C)C)=N/Nc1nc(-c2ccccc2)c(C)s1 1.16

----------
biological target: Amine oxidase [flavin-containing] B (Homo sapiens); test: biochemical; type: cell-based, BTI-TN-5B1-4
Sequence (P27338 whole entry): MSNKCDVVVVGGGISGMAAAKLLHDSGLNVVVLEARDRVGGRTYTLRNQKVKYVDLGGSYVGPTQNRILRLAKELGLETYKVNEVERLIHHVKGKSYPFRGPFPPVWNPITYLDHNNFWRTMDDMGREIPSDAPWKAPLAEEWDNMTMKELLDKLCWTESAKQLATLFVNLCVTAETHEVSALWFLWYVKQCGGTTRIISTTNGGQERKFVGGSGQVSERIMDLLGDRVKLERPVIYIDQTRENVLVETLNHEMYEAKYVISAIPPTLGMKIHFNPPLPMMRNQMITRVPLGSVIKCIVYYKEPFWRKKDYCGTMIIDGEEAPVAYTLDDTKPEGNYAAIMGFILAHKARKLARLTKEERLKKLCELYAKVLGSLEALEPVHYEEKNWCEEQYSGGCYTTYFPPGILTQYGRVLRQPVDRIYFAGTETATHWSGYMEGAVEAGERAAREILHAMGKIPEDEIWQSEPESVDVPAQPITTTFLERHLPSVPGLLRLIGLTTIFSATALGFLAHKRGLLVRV
Description: Inhibition of human MAO-B expressed in baculovirus infected BTI-TN-5B1-4 insect cells using p-tyramine as substrate assessed as hydrogen peroxide production by fluorimetric method
METRIC: IC50 (µM)
Report only the number, with the unit µM understood.

Worked cases, IC50 given:
COMPOUND	MEASUREMENT TARGET	IC50 / µM
CCC(CC)=NNc1nc(-c2ccccc2)c(C)s1	Amine oxidase [flavin-containing] B (Homo sapiens)	2.45
C/C(CC(C)C)=N/Nc1nc(-c2ccc3ccccc3c2)cs1	Amine oxidase [flavin-containing] B (Homo sapiens)	3.56
Cc1sc(NN=C2CCCC2)nc1-c1ccccc1	Amine oxidase [flavin-containing] B (Homo sapiens)	1.41
CC(C)=NNc1nc(-c2ccc3ccccc3c2)cs1	Amine oxidase [flavin-containing] B (Homo sapiens)	3.55
CC1CCC/C(=N\Nc2nc(-c3ccc4ccccc4c3)cs2)C1 (stereo unspecified)	Amine oxidase [flavin-containing] B (Homo sapiens)	10.8

Item C/C(=N\Nc1nc(-c2ccccc2)c(C)s1)c1cc2ccccc2oc1=O has what recorded IC50? 3.02

Next entry: C(=N\Nc1nc(-c2ccc3ccccc3c2)cs1)/c1ccco1 2.76

Now the same for Cc1sc(N/N=C/c2ccc3c(c2)OCO3)nc1-c1ccccc1 6.57

Please give the result for Cc1sc(N/N=C/c2ccncc2)nc1-c1ccccc1 too. 1.37

// repeat for Cc1sc(N/N=C2\CCCC2C)nc1-c1ccccc1 (stereo unspecified) and report 1.33

Another compound: Cc1sc(N/N=C2\CCC(C)C2)nc1-c1ccccc1 (stereo unspecified) 2.31

----------
biological target: Amine oxidase [flavin-containing] A (Homo sapiens, UniProt P21397); assay: Inhibition of human MAO-A expressed in baculovirus infected BTI-TN-5B1-4 insect cells using p-tyramine as substrate assessed as hydrogen peroxide production by fluorimetric method
METRIC: pIC50
In simple prose, pIC50 is minus the logarithm base ten of a concentration in moles per litre.

See these solved cases before continuing.
COMPOUND	MEASUREMENT TARGET	pIC50
CC1CCC/C(=N\Nc2nc(-c3ccc4ccccc4c3)cs2)C1 (centres undefined)	Amine oxidase [flavin-containing] A (Homo sapiens, UniProt P21397)	5.71
C=CCC/C(C)=N\Nc1nc(-c2ccc3ccccc3c2)cs1	Amine oxidase [flavin-containing] A (Homo sapiens, UniProt P21397)	5.86
Cc1sc(NN=C2CCCCC2)nc1-c1ccccc1	Amine oxidase [flavin-containing] A (Homo sapiens, UniProt P21397)	5.75

# get_value(readout='pIC50', item= CC/C(C)=N\Nc1nc(-c2ccc3ccccc3c2)cs1 ) 5.76

----------
species on record: Homo sapiens; assay: Selectivity index, ratio of IC50 for human MAO-B to IC50 for human MAO-A
just bin them by Ratio IC50: b0 (below 0.9), b1 (0.9 to below 2), b2 (2 or more)

SMILES CODE	LABEL CLASS
CCCC/C(CC)=N\Nc1nc(-c2ccc3ccccc3c2)cs1	b1
C(=N\Nc1nc(-c2ccc3ccccc3c2)cs1)/c1cccnc1	b1
CCCCCC/C(C)=N\Nc1nc(-c2ccc3ccccc3c2)cs1	b2

# classify by Ratio IC50 band: C/C(=N\Nc1nc(-c2ccccc2)c(C)s1)C1CCCCC1 b0

Moving on to C/C(=N\Nc1nc(-c2ccc3ccccc3c2)cs1)c1cccs1 b2

C/C(=N\Nc1nc(-c2ccccc2)c(C)s1)c1ccccn1 ? b0

Same read-out for C/C(=N\Nc1nc(-c2ccc3ccccc3c2)cs1)c1ccccc1 ? b2

Another compound to check: C(=N\Nc1nc(-c2ccc3ccccc3c2)cs1)/c1c[nH]c2ccccc12 b2

Cc1sc(N/N=C/c2ccc3c(c2)OCO3)nc1-c1ccccc1 , same question. b0

Next record, please: C=CCC/C(C)=N\Nc1nc(-c2ccccc2)c(C)s1 b1

----------
biological target: Amine oxidase [flavin-containing] B (Homo sapiens); assay: biochemical; type: cell-based, BTI-TN-5B1-4; settings: bti-tn-5b1-4
METRIC: IC50

Report IC50 for Cc1sc(NN=C2CCC(C)CC2)nc1-c1ccccc1 (stereo unspecified) please. 2520 nM

----------
species: Homo sapiens; test: Selectivity index, ratio of IC50 for human MAO-B to IC50 for human MAO-A
Output Y for records whose Ratio IC50 is lower than 2, N for records at or above 2.

SMILES CODE	LABEL CLASS
Cc1sc(NN=C2CCCC2)nc1-c1ccccc1	N
C/C(CC(C)C)=N/Nc1nc(-c2ccc3ccccc3c2)cs1	Y
CCCCC/C(C)=N\Nc1nc(-c2ccc3ccccc3c2)cs1	N
C/C(=N\Nc1nc(-c2ccccc2)c(C)s1)c1cccs1	Y
Cc1sc(NN=C2CCCCCCC2)nc1-c1ccccc1	Y
Cc1sc(NN=C2CCCCCC2)nc1-c1ccccc1	Y

Quick check: Ratio IC50 of C/C(=N\Nc1nc(-c2ccc3ccccc3c2)cs1)C1CCCCC1 under 2? N

Also need CC/C(C)=N\Nc1nc(-c2ccc3ccccc3c2)cs1 , thanks. Y

----------
biological target: Amine oxidase [flavin-containing] B (Homo sapiens); assay: biochemical; format: cell-based, BTI-TN-5B1-4
pIC50 reference
In plain terms, pIC50 is the concentration in mol/L turned into minus its base-10 logarithm.

MOLECULE	MEAS VALUE
CCCCCC/C(C)=N\Nc1nc(-c2ccccc2)c(C)s1	5.43

What value of pIC50 has been reported for the following molecule? CCC/C(C)=N\Nc1nc(-c2ccc3ccccc3c2)cs1 5.51

What about this molecule? C(=N\Nc1nc(-c2ccc3ccccc3c2)cs1)/c1cccc2ccccc12 4.64

Next record, please: C=CCC/C(C)=N\Nc1nc(-c2ccc3ccccc3c2)cs1 5.40

Queued: C/C(=N\Nc1nc(-c2ccc3ccccc3c2)cs1)c1cc2ccccc2oc1=O 4.96

Try the molecule Cc1sc(N/N=C/c2c[nH]c3ccccc23)nc1-c1ccccc1 5.85

Then what about the molecule Cc1sc(N/N=C2\CCCC(C)C2)nc1-c1ccccc1 (stereo not drawn) ? 5.54

Similarly, CC/C(C)=N\Nc1nc(-c2ccc3ccccc3c2)cs1 ? 5.58

Next molecule: CCCC/C(CC)=N\Nc1nc(-c2ccccc2)c(C)s1 5.32

Then what about the molecule C/C(=N\Nc1nc(-c2ccccc2)c(C)s1)c1cccs1 ? 5.63

Also CC/C(C)=N\Nc1nc(-c2ccccc2)c(C)s1 , if possible. 5.82

Ok, now CCCC/C(CC)=N\Nc1nc(-c2ccc3ccccc3c2)cs1 5.42

Try this molecule next: CC1CC/C(=N\Nc2nc(-c3ccc4ccccc4c3)cs2)C1 (stereo not drawn) 5.46

C/C(=N\Nc1nc(-c2ccccc2)c(C)s1)c1ccccn1 , same question. 6.06

Here is the next molecule: Cc1sc(N/N=C/c2cccs2)nc1-c1ccccc1 5.52

What would you report for CCCCC/C(C)=N\Nc1nc(-c2ccc3ccccc3c2)cs1 ? 4.80

Next record, please: C(=N\Nc1nc(-c2ccc3ccccc3c2)cs1)/c1cccnc1 5.32
